assayed.system: Histidine--tRNA ligase (Leishmania infantum) (UniProt A4I591)
Sequence (A4I591 as listed by the source): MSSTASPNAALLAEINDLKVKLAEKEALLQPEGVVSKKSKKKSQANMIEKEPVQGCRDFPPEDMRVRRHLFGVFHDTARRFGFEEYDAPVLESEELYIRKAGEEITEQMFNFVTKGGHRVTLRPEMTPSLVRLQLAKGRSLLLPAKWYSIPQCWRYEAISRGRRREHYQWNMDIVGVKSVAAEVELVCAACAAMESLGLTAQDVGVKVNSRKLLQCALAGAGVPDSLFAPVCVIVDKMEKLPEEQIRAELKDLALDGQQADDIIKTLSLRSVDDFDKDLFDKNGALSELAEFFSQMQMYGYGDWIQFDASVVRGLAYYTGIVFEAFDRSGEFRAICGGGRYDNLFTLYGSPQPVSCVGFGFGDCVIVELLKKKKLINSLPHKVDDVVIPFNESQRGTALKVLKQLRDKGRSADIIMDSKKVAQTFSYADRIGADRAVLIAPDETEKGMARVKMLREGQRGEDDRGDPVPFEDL
test.summary: Leishmania infantum Histidine tRNA synthetase (LdHisRS)
Type: functional
Design: scale not given: in the data most compounds retested in dose-response had high values
assay.context: 30 µM
The whole screen tested about 69,000 compounds, of which about 420 (0.61%) showed an effect of 50% or more. The sample as a whole holds a higher share of strong results than the screen did.
Property: Percent Effect; scope: individual molecules

{"columns": ["molecule", "u", "Percent Effect"],
 "data": [
  ["c1cncc(-c2ccc3c(c2)C2(CC3)CCN(c3nncs3)CC2)c1", "%", 53.3],
  ["NC(=O)C1CCN(C(=O)Cc2cnc(-c3c(Cl)cccc3Cl)s2)CC1", "%", 12.1],
  ["CNc1nc2c(s1)C(c1c(Cl)cccc1Cl)CC(=O)N2 (stereo not given)", "%", 74.3],
  ["CN1[C@H]2CC[C@@H]1CN(C(=O)c1sccc1S(N)(=O)=O)CC2", "%", -12.7],
  ["c1cnc(N2CCO[C@H]3[C@H](OCc4cccnc4)CC[C@@H]32)nc1", "%", -9.73],
  ["Cn1ncc2c1NC(=O)CC2c1c(F)cccc1Cl (stereo not given)", "%", 20],
  ["CN1C(=O)CO[C@H]2CN(C(=O)c3ccc4c(c3)CCCC4)C[C@@H]21", "%", 0],
  ["COc1ccccc1-n1cc(CN2CCN(C)[C@@H]3CS(=O)(=O)C[C@@H]32)cn1", "%", 17.1],
  ["Cn1cccc(NC(=O)N2CCC(CSc3ccccc3)C2)c1=O (stereo not given)", "%", 78.1],
  ["Cn1cccc(NC(=O)N2CCC(Cc3ccccc3)C2)c1=O (stereo not given)", "%", 106],
  ["CC(C)(C)n1ncc2c1NC(=O)CC2c1c(F)cccc1F (stereo not given)", "%", 26],
  ["Nc1nc2c(s1)C(c1c(F)cccc1Cl)CC(=O)N2 (stereo not given)", "%", 90],
  ["Cc1nn(C)cc1C(=O)N1CCC(CSc2ccccc2)C1 (stereo not given)", "%", 11],
  ["Cc1nnc(N2CCc3cncnc3C2)c(C#N)c1C", "%", 65.3],
  ["COCCNC(=O)[C@H]1CN(c2nnc(C)s2)C[C@H]2OCC[C@@H]12", "%", 5.11],
  ["Cc1ccc2[nH]c(CO[C@H]3CN(c4ccc(C#N)cn4)C[C@H]3F)nc2c1", "%", 69.4],
  ["Cn1ccc(C(=O)N2C[C@H]3CCC[C@@]3(COCc3cccnc3)C2)n1", "%", 7.96],
  ["Cn1cc(N2C(=O)CC[C@@H]3[C@H]2CCN3Cc2nccs2)cn1", "%", 9.72],
  ["CC(C)(C)C(=O)N1CCC(COCc2ccccc2)C1 (stereo not given)", "%", 8],
  ["O=C(c1ccc(F)cc1)N1C[C@H]2CCC[C@@]2(COCc2ccncc2)C1", "%", 18.6],
  ["Cn1ncc2c1NC(=O)CC2c1c(Cl)cccc1Cl (stereo not given)", "%", 25],
  ["Cc1ccc(N2CCc3sc(C(=O)N4CCOCC4)cc32)nn1", "%", 50],
  ["NC[C@H]1CC[C@H](C(NC(=O)c2cccc(F)c2)c2ccccn2)CC1 (stereo not given in full)", "%", 60],
  ["CC(=O)N1CCN(C(=O)Cc2cnc(-c3c(Cl)cccc3Cl)s2)CC1", "%", -1.1],
  ["CN(C)CC(=O)N1CCC2(CCc3ccc(-c4ccncc4)cc32)CC1", "%", 22.4],
  ["CS(=O)(=O)NC[C@@H]1OC[C@H]2CN(C(=O)c3ccc[nH]3)CC[C@H]21", "%", -383],
  ["COc1cccc(C(=O)NC(c2ccccn2)[C@H]2CC[C@H](CN)CC2)c1 (stereo not given in full)", "%", 39.1],
  ["CNc1nc2c(s1)C(c1ccc(F)cc1Cl)CC(=O)N2 (stereo not given)", "%", 7.5],
  ["Cn1ccnc1CC1CCCN(C(=O)Nc2cccn(C)c2=O)C1 (stereo not given)", "%", 17.3],
  ["c1cc(-c2ccc3c(c2)C2(CC3)CCN(c3nncs3)CC2)ccn1", "%", 74.2],
  ["NC(=O)C1CCCN(Cc2c(-c3ccco3)[nH]c3ncccc23)C1 (stereo not given)", "%", 55.6],
  ["CCN1CCN(Cc2c(-c3ccco3)[nH]c3ncccc23)CC1", "%", 4.35],
  ["CN1C[C@@H](F)[C@@H](OCc2nc3ccc(C#N)cc3[nH]2)C1", "%", 25],
  ["O=C(CCO)N1CCC2(CCc3ccc(-c4ccoc4)cc32)CC1", "%", 22.4],
  ["Cc1ncc(CN2Cc3ccccc3O[C@]3(CC[C@H](CO)CC3)C2)cn1", "%", 11.1],
  ["CN1CCN(Cc2c(-c3ccco3)[nH]c3ncccc23)CC1", "%", 18.8],
  ["CN(C)S(=O)(=O)N1CC[C@]2(O)CCN(CCCc3cccnc3)C[C@@H]2C1", "%", 18.4],
  ["COc1c(C(=O)N2CCC(CSc3ccccc3)C2)c(C)nn1C (stereo not given)", "%", 19.2],
  ["Cc1nc[nH]c1CNC1CC(=O)N(CCc2cccc(Cl)c2)C1 (stereo not given)", "%", 7.45],
  ["NC[C@H]1CC[C@H](C(NC(=O)c2ccccn2)c2ccccn2)CC1 (stereo not given in full)", "%", 22.9],
  ["Cn1cccc(NC(=O)N2CCC(COCc3ccccc3)C2)c1=O (stereo not given)", "%", 108],
  ["c1cc(-c2ccc3c(c2)CCC32CCNCC2)ccn1", "%", 53.5],
  ["COc1ccc(N)c(N2CCN(C(C)=O)CC2)n1", "%", 61.6],
  ["Cc1nnsc1CN1C[C@H]2CC[C@@H]1CN(Cc1ccc(F)cc1)C2", "%", 8.33],
  ["COc1ccc(-n2c(CCC(=O)O)nc3ccccc32)cc1CO", "%", 60]
]}

Reference source for all entries: ChEMBL document CHEMBL3988442
